- Tested on: HeLa
- recorded conditions: bulk resorufin, single well, 28.5 h, 10 µM, Bulk resorufin fluorescence
# maps each entry to its % viability
measured attribute: % viability

- structure as smiles: "O=C(CN1C(=O)[C@H]2CCCN2C(=O)c2ccccc21)NCC1CC1"
  result: "88.6%"
- structure as smiles: "Cc1nnc(SCC(=O)Nc2ccc(CN3CCOCC3)cc2)s1"
  result: "112%"
- structure as smiles: "O=C(CSC1=NCCS1)Nc1ccnc2ccccc12"
  result: "98.9%"
- structure as smiles: "CC(C)c1n[nH]c2c1/C(=N\\N)c1ccccc1-2"
  result: "73.8%"
- structure as smiles: "CCOC(=O)N1CCC(NS(=O)(=O)c2ccc(Oc3ccccc3)cc2)CC1"
  result: "97.7%"
